# kon values compiled below
TEST TARGET: T1, human Nectin-4 extracellular antigen hNectin-4-His (human, UniProt Q96NY8 32-349)
T1 construct: C-terminal 8xHis tag included
T1 sequence: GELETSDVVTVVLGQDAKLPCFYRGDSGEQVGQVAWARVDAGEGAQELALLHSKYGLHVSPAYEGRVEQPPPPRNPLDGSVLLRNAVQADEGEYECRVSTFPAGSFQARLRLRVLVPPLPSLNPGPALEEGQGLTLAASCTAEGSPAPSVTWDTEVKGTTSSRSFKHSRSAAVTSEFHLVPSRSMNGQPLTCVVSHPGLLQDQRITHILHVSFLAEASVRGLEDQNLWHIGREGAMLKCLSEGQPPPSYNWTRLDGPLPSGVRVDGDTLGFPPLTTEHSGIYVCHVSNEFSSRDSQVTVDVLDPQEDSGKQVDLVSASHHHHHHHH
PROTOCOL DESCRIPTION: SPR, antibody on Protein A chip, 1:1 fit
READOUT KIND: kon (M⁻¹ s⁻¹)

| BINDER | READOUT KIND | RESULT NUMBER |
| --- | --- | --- |
| antibody 1F3-1F8 (antibody, human IgG1, kappa, V domains shown) VH: EVQLVESGGGLVQPGGSLRLSCAASGFNFGNYGMSWVRQAPGKGLEWVSRISGDGSNINYADSVKGRFTISRDNSKNTLYLQMNSLRAEDTAVYYCARAELLAFDVYTASDYWGQGTLVTVSS VL: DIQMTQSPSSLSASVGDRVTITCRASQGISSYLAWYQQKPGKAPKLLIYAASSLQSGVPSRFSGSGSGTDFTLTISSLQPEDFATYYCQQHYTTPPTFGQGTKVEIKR | kon | 1.71e+06 |
| antibody 1F3-1G7 (antibody, human IgG1, kappa, V domains shown) VH: EVQLVESGGGLVQPGGSLRLSCAASGDIFSNYSMSWVRQAPGKGLEWVSGIYPSGDSRRYADSVKGRFTISRDNSKNTLYLQMNSLRAEDTAVYYCARAELLAFDVYTASDYWGQGTLVTVSS VL: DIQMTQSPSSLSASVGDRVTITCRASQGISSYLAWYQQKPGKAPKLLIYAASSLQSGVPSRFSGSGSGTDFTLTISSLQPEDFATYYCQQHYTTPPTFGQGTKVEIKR | kon | 802000 |
| antibody 1F3-1E4 (antibody, human IgG1, kappa, V domains shown) VH: EVQLVESGGGLVQPGGSLRLSCAASGFSFGTYGMSWVRQAPGKGLEWVSRISGDSANIRYADSVKGRFTISRDNSKNTLYLQMNSLRAEDTAVYYCARAELLAFDVYTASDYWGQGTLVTVSS VL: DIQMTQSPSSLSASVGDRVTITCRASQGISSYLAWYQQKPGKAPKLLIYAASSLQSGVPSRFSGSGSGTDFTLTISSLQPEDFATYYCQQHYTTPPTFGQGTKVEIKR | kon | 1.94e+06 |
